Source of measurements: patent US20230057847A1

# test_target: T1, human GLP-2R (human, UniProt O95838 1-553)
# T1 sequence (looked up): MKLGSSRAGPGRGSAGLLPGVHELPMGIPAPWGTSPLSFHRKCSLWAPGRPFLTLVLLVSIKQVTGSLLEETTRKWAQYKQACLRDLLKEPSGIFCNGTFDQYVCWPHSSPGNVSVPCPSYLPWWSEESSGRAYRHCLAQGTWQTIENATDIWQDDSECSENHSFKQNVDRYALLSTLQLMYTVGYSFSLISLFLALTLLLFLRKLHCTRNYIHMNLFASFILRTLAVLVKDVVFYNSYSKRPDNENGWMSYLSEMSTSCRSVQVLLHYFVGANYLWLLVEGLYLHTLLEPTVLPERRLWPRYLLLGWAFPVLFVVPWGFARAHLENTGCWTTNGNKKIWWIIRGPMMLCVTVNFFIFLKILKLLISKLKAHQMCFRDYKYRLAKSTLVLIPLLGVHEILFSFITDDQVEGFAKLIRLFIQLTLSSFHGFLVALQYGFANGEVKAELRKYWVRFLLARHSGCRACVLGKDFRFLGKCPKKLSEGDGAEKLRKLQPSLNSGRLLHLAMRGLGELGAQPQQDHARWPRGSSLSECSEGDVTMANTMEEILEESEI
# protocol_text: cell-based or functional assay
Bridges are numbered along the chain shown (N, C = ends). Where no end group is shown, it is not given here. [ ]: non-standard residue; d: D form. Nle = CCCC[C@H](N)C(=O)O; K1 = not defined here; K5 = not defined here
measured_metric: GLP-2R - cAMP 0% FBS/nM (EC50, CRE-luciferase reporter)

Find the recorded GLP-2R - cAMP 0% FBS/nM (EC50, CRE-luciferase reporter) belonging to HGDGSFSDE[Nle]NTA[Nle]DNKAARDFIKWLIQTKITDPSSGAPPPS (linker 17-24 via K5; reading uncertain) [Conjugate 14: GLP2-2G-10Nle-13A-14Nle-1K-EX4 (SEQ ID NO. 13) with staple K5 at positions 17, 24] and report it. 2.68 nM

Find the recorded GLP-2R - cAMP 0% FBS/nM (EC50, CRE-luciferase reporter) belonging to HGDGSFSDEMNTILDNKAARDFIKWLIQTKITDPSSGAPPPS (bridge 17-24 via K1; ends not checked) [Conjugate 19: GLP2-2G-1K-EX4 (SEQ ID NO. 16) with staple K1 at positions 17, 24] and report it. 0.15 nM

Find the recorded GLP-2R - cAMP 0% FBS/nM (EC50, CRE-luciferase reporter) belonging to HGDGSFSDEMNTILDNXAARDFIXWLIQTKITDPSSGAPPPS (Orn at 17 and 24; staple K5 attached at positions 17, 24 (ornithines)) [Conjugate 25: GLP2-2G-1Orn-EX4 (SEQ ID NO. 20) with staple K5 at positions 17, 24] and report it. 2.11 nM

Find the recorded GLP-2R - cAMP 0% FBS/nM (EC50, CRE-luciferase reporter) belonging to HGDGSFSDE[Nle]ATA[Nle]DAKAARDFIKWLIQTKITDPSSGAPPPS (linker 17-24 via K5; reading uncertain) and report it. 1.33 nM
